FYI, the data here is from patent US20230250160A1.

TEST_TARGET: T1, angiogenin (human (produced in the Human Secretome …, UniProt P03950 25-147))
T1 construct: also called bANG
T1 sequence (P03950 25-147 limits assumed): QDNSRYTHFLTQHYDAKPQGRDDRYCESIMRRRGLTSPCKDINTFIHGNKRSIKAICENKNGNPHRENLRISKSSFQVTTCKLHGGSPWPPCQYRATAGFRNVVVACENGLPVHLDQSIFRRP
EXPERIMENTAL_DETAILS: SPR Biacore T200, target on CM5 chip, ADAPT injected, 1:1 fit
REPORTED_ENDPOINT: kon

[[record]]
binder = "LYVAKDNADWELWQYGVSDFYRSLIWKAKTVEGVEALKLHILAALP (designed binder) [ADAPT variant ANG_16]"
data_value = "99000 M⁻¹ s⁻¹"

[[record]]
binder = "LYWAKDYADYELWQYGVSDFYRSLIWKAKTVEGVEALKLHILAALP (designed binder, also called ANG_2) [ADAPT variant ANG_02]"
data_value = "52000 M⁻¹ s⁻¹"

[[record]]
binder = "LWAAKDDADWELWQYGVSDFYRALIWKAKTVEGVEALKLHILAALP (designed binder, also called ANG_6) [ADAPT variant ANG_06]"
data_value = "65000 M⁻¹ s⁻¹"

[[record]]
binder = "LHEAKDWADYELWSYGVSDFYRALIWKAKTVEGVEALKLHILAALP (designed binder) [ADAPT variant ANG_13]"
data_value = "110000 M⁻¹ s⁻¹"

